Taken from ChEMBL document CHEMBL4665834.

molecular target: Prostaglandin F2-alpha receptor (Rattus norvegicus); test: Antagonist activity at FPR in Wistar rat assessed as inhibition of PGF2alpha-induced uterus contraction; format: tissue-based
Sequence (P43118 whole entry): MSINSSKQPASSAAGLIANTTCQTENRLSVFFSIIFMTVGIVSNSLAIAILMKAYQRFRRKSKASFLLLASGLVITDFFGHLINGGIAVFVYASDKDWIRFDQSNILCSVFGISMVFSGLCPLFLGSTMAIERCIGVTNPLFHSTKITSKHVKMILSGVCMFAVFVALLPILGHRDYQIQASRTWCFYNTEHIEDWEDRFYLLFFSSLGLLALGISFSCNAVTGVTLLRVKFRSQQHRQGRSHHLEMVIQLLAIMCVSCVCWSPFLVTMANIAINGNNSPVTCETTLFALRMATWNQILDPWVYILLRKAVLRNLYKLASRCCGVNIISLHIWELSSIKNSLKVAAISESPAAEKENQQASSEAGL
assayMetric: IC50 (nM)
# value in nM; strip the unit string

Suppose we examine the compound Cc1c(N2CCCC2)nc2ccc(Br)cc2c1C(=O)NC[C@H](CCC(=O)O)c1ccccc1Cl ; what IC50 value has been reported?
52

---

Target: Cytochrome P450 1A2 (Homo sapiens, UniProt P05177)
Sequence (P05177 whole entry): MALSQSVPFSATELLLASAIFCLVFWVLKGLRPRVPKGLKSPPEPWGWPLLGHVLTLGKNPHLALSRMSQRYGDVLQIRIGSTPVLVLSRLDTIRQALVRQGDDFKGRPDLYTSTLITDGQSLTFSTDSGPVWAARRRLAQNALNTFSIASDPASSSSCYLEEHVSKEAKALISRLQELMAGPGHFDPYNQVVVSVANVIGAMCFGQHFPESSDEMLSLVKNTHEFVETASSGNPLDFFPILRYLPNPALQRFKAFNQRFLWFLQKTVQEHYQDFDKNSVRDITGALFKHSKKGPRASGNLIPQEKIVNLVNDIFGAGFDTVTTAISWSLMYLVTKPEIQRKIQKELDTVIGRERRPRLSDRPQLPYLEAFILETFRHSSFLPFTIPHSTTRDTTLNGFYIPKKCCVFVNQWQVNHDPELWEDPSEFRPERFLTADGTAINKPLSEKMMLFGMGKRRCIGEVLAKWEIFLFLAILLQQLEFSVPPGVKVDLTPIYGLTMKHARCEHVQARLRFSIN
pIC50: −log10 of the molar value.
assayMetric: pIC50

Suppose we examine the molecule Cc1c(N2CCCC2)nc2ccc(Br)cc2c1C(=O)NC[C@H](CCC(=O)O)c1ccccc1Cl [BAY-6672] ; what pIC50 value has been reported?
< 4.70
